# TGT: Human serum albumin (HSA), denatured (Homo sapiens, UniProt P02768 P02768:25-609)
# Sequence (P02768 25-609, one chain of several): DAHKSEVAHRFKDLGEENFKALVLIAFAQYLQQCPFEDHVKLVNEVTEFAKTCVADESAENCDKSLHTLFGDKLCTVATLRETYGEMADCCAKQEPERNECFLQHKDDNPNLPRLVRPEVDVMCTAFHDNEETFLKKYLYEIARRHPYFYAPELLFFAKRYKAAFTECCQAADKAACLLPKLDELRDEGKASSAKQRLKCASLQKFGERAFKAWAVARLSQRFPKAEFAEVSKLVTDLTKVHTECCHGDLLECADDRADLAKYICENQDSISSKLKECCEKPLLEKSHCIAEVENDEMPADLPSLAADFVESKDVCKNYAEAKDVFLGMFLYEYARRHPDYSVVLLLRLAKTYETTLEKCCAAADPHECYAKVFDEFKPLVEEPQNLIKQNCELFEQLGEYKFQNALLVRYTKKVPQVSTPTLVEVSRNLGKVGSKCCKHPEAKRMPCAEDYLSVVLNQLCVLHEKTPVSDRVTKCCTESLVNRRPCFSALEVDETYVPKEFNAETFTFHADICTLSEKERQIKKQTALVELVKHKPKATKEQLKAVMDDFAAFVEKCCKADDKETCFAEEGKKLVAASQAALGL
# PROTOCOL_DETAILS: pulldown; 1% surfactant, 50 mM DTT or 25 mM TCEP, PBS pH 7.4, 40 ug/mL HSA
# CONDITION_DESCRIPTION: tags: none; denatured with 1% surfactant and reduced with DTT or TCEP; label: 5'-fluorescein (gel shift) or 5'-thiol-hexaethylene glycol on agarose (pull-down)
Recorded measurements of binding signal, one per entry
REPORTED_ENDPOINT: binding signal (% HSA bound)

- BINDER: "H6 (ssDNA) DNA: GCGCATACCAGCTTATTCAATTGCGTACCTAGGATTTACTTTCTCAAGATATTTGGAGTGACAAGTGGCATAAGATAGTAAGTGCAATCTCGGC"
  NUMERIC_VALUE: 10
- BINDER: "40 (ssDNA) DNA: GCGCATACCAGCTTATTCAATTCGGTAGTGCAGCGGCTTGAAATCAGCCGTGCTTTCGGGACGGAACTACTCAGATAGTAAGTGCAATCTCGGC"
  NUMERIC_VALUE: 10.3
- BINDER: "19 (ssDNA) DNA: GCGCATACCAGCTTATTCAATTAACGTGTAGAGGTGTTCACGCACCACGCCGACTGTGGTTGACCCACAGTTAGATAGTAAGTGCAATCTCGGC"
  NUMERIC_VALUE: 10.3
- BINDER: "P1 (ssDNA) DNA: GCGCATACCAGCTTATTCAATTGCATAGTCATGCGGGAATAGTTTTCGATGAGGGCTATTGGAGGCCCCAGCAGATAGTAAGTGCAATCTCGGC"
  NUMERIC_VALUE: 12.7
